system: SK-OV-3 ovarian; assay: NCI tumour cell line growth inhibition, 48 h
I'd be grateful if you could share measured TGI for these entries.

# annotated cases, reported TGI shown
> print(dat)
                                   molecule  measurement
1  O=C1Nc2ccccc2C1S(=O)(=O)c1ccccc1 (stereo not drawn)     > 100 µM
2                         CCN(CC)C(=S)SSCCO     > 100 µM

Now consider the entry below.
Input CC(=O)Oc1ccc(/C=C/C(=O)NCCOC(=O)/C=C/c2ccc(OC(C)=O)c(OC(C)=O)c2)cc1OC(C)=O , output reported TGI.
> 100 µM

====

system: DU-145 prostate; assay: NCI tumour cell line growth inhibition, 48 h
measured property: TGI

Worked examples follow.
> print(dat)
                                   compound      test.system  measurement
1              CCOC(=O)n1c2ccccc2c(=O)n1CCO  DU-145 prostate     > 100 µM
2                    Cc1cc2c3c(c1)CCCN3CCC2  DU-145 prostate      > 10 µM
3  C=CC1(O)CCCC=C1COCc1ccccc1 (stereo not given)  DU-145 prostate     > 100 µM
4   CCN(CC)CCS(=O)(=O)CCNc1ccnc2cc(Cl)ccc12  DU-145 prostate    > 32.8 µM

// fetch TGI given entry CC(=O)Nc1cc(/C=C\C(=O)N2CC(CCl)c3c2cc(N)c2ccccc32)n(C)n1 (stereo not given)
> 100 µM

====

system: SN12C renal; assay: NCI tumour cell line growth inhibition, 48 h
measured property: TGI

Sample answers from the record:
> print(dat)
                                   compound  test.system  measured.property  measurement
1              O=c1[nH]nc(Cc2ccccc2)n1C1CC1  SN12C renal                TGI     > 100 µM
2  Cc1csc(CCC(N)C(=O)O)n1 (stereo not drawn)  SN12C renal                TGI     > 100 µM

# context switch: different compound, same TGI
Determine from records and report TGI for Nc1c(C(=O)Nc2ccccc2O)[n+]([O-])c2ccccc2[n+]1[O-]
> 100 µM

====

For each of the molecules below, state its TGI.
tested on: HOP-92 NSCLC; assay: NCI tumour cell line growth inhibition, 48 h
Give bare numbers, in µM.

Examples from the recorded data:
> print(dat)
                                   molecule   test.system  measurement
1  Clc1cccc(C2SCc3nc4ccccc4n32)c1 (centres undefined)  HOP-92 NSCLC         30.4
2  C=CC(C)(O)CCC1C(=C)C(O)CC2C(C)(C)CCCC12C (centres undefined)  HOP-92 NSCLC           34

Alright, here's another molecule for you.
Give me measured TGI, please, for this molecule: O=C(Nc1nc2c(s1)CCc1c-2c(Br)n(Cc2ccccc2)c1Br)c1ccccc1
4.63

====

tested on: PC-3 prostate; assay: NCI tumour cell line growth inhibition, 48 h
Give measured TGI for each item. Keep answers brief.

Consider the worked cases shown below.
> print(dat)
                                   molecule  measurement
1  CCOC(=O)C(C)(Cc1ccc(O)cn1)NC(=O)c1ccccc1 (stereo unspecified)     > 100 µM
2           Cc1ccccc1CNc1c2ccccc2nc2ccccc12      8.79 µM
3  CC1=NNC(=O)[C@H]2[C@H]1CCC1[C@@H]2CC[C@]2(C)[C@@H](O)CC[C@@H]12 (stereo partly specified)     > 100 µM
4  CSC1(Cc2ccccn2)C(=O)Nc2cccc([N+](=O)[O-])c21 (stereo unspecified)     > 100 µM
5  O=C1NC2=NN=C(c3ccc(Br)cc3)CN2NC12c1ccccc1-c1ccccc12     > 100 µM

Dear colleague, could you please provide TGI for the molecules listed below?
1. O=C1CC(=O)NC(=NN2C(=O)/C(=C/c3ccc(Cl)cc3)N=C2c2ccccc2)N1
2. CCCCOc1ccc(S(=O)(=O)/N=C(\N)Nc2ccc(Cl)cc2)cc1
3. CCOC(=O)C1=C(C)N(CC(C)C)C2(O)C(OC)CC(=O)C3C(=O)N(c4ccccc4)C(=O)C132 (stereo unspecified)

28.2 µM
31 µM
> 100 µM

For each of the items listed, what is its TGI?
1. O=c1[nH]nc(Cc2ccccc2)n1C1CC1
2. Cc1cc2c3c(c1)CCCN3CCC2

> 100 µM
> 10 µM

Return the recorded TGI value; entry: CCOP(=O)(/C=C/n1cnc2c(=O)n(C(C)=O)c(N)nc21)OCC
> 100 µM
